# measurement-target: HLA-A*11:01
# test-details: IEDB peptide-MHC binding, purified MHC/competitive/radioactivity; filed as Kd, often an IC50 or EC50 that approximates it; bounds were set here for any values at or beyond the usual limits of such assays
# study-conditions: source organism: Dengue virus 3 Martinique/1243/1999
A collection of sequences and their measured pKd
In simple prose, pKd is minus the logarithm base ten of a concentration in moles per litre.

Query string: What value of pKd has been recorded for this entry: IALGLMALK
Result string: 7.37

Query string: What value of pKd has been recorded for this entry: AMCTNTFVLK
Result string: 7.68

----------
# measurement-target: HLA-A*02:06
# test-details: IEDB peptide-MHC binding, purified MHC/competitive/radioactivity; filed as Kd, often an IC50 or EC50 that approximates it; bounds were set here for any values at or beyond the usual limits of such assays
# study-conditions: source organism: Dengue virus 2 16681-PDK53
quantity-name: pKd
In simple prose, pKd is minus the logarithm base ten of a concentration in moles per litre.

Query string: Entry YSMCTGKFKV , system HLA-A*02:06: what pKd was measured?
Result string: 7.26

----------
# measurement-target: HLA-A*02:01
# test-details: IEDB peptide-MHC binding, purified MHC/competitive/fluorescence; filed as Kd, often an IC50 or EC50 that approximates it; bounds were set here for any values at or beyond the usual limits of such assays
# study-conditions: source organism: Vibrio cholerae V52
pKd: −log10 of the molar value.
quantity-name: pKd

Query string: What value of pKd has been recorded for this entry: TTILGLLPM
Result string: ≤ 4.70

----------
# measurement-target: HLA-A*02:06
# test-details: IEDB peptide-MHC binding, purified MHC/competitive/radioactivity; filed as Kd, often an IC50 or EC50 that approximates it; bounds were set here for any values at or beyond the usual limits of such assays
# study-conditions: source organism: Dengue virus 4 Singapore/8976/1995
quantity-name: Kd (nM)
Express it in nM; write the number only.

Query string: What value of Kd has been recorded for this entry: VQADMGCVV
Result string: 23.3

----------
# measurement-target: HLA-B*45:06
# test-details: IEDB peptide-MHC binding, purified MHC/competitive/fluorescence; filed as Kd, often an IC50 or EC50 that approximates it; bounds were set here for any values at or beyond the usual limits of such assays
# study-conditions: source organism: Yersinia pestis Nepal516
quantity-name: Kd

* MVLSGTLAY | ≥ 5 µM

Now consider a different sequence.
Query string: What value of Kd has been recorded for this entry: RAMRMVYYL
Result string: ≥ 5 µM

----------
# measurement-target: HLA-A*30:01
# test-details: IEDB peptide-MHC binding, purified MHC/competitive/radioactivity; filed as Kd, often an IC50 or EC50 that approximates it; bounds were set here for any values at or beyond the usual limits of such assays
# study-conditions: source organism: Dengue virus 3 Martinique/1243/1999
quantity-name: Kd
A complete answer gives the number and then names the unit.

• KADRVIDPRR = 5.18 µM

Now consider a different sequence.
Query string: What value of Kd has been recorded for this entry: LSRNSTHEM
Result string: 0.106 µM

----------
# measurement-target: HLA-A*33:01
# test-details: IEDB peptide-MHC binding, purified MHC/competitive/radioactivity; filed as Kd, often an IC50 or EC50 that approximates it; bounds were set here for any values at or beyond the usual limits of such assays
# study-conditions: source organism: Vaccinia virus Copenhagen
A collection of sequences and their measured pKd
In simple prose, pKd is minus the logarithm base ten of a concentration in moles per litre.

• GFTATICLK = 6.33
• YTFAISYCR = 8.76

Now consider a different sequence.
Query string: What value of pKd has been recorded for this entry: SLLKETIQK
Result string: 5.13
